# Test system: 134 cancer cell lines
# Assay Method Text: Cell viability assay (ATPlite, 72 hours), IC50 on cancer cell line panel
# Test Settings: Homo sapiens, CAL-27, read-out: IC50 in cell proliferation assay, cell line CAL-27
Give measured IC50 for each item. Keep answers brief.

Please review the entries below; each comes with its answer.
molecule="Cc1cc(Nc2ncnc3ccc(NC4=NC(C)(C)CO4)cc23)ccc1Oc1ccn2ncnc2c1 [tucatinib]" outcome_measure=IC50 endpoint_value="13.7 µM"
molecule="CCc1nc(C(N)=O)c(Nc2ccc(N3CCC(N4CCN(C)CC4)CC3)c(OC)c2)nc1NC1CCOCC1 [gilteritinib]" outcome_measure=IC50 endpoint_value="0.366 µM"
molecule="FC(F)(F)c1ccc(CNc2ccc(Cc3c[nH]c4ncc(Cl)cc34)cn2)cn1 [pexidartinib]" outcome_measure=IC50 endpoint_value="> 31.6 µM"

Please look at the following molecule next.
Incoming: Value lookup for IC50; key = CCCS(=O)(=O)Nc1ccc(F)c(C(=O)c2c[nH]c3ncc(-c4ccc(Cl)cc4)cc23)c1F [vemurafenib]
Outgoing: > 31.6 µM

====

Please respond with reported inhibition at 1 µM for every item in the list.
# Study System: panel of 255 wild-type kinases (Homo sapiens)
# Assay Method Text: Kinase panel profiling at 1 µmol/L (MSA or IMAP), percentage inhibition
# Type: biochemical
# Test Settings: CDC7/ASK kinase assay; 1 µmol/L single concentration; read-out: %-inhibition CDC7/ASK
Give bare numbers, in %.

mol=CCN1C(=O)N(c2c(F)c(OC)cc(OC)c2F)Cc2cnc3[nH]c(CN4CCOCC4)cc3c21 u=% endpoint_value=-3.54
mol=Cc1nc(NC(=O)N2CCC[C@H]2C(N)=O)sc1-c1ccnc(C(C)(C)C(F)(F)F)c1 u=% endpoint_value=-0.499

I have 6 compounds here; please give me inhibition at 1 µM for each one.
1. Cn1cnc2c(F)c(Nc3ccc(Br)cc3F)c(C(=O)NOCCO)cc21
2. COc1ccc(CN2C3CC2CN(c2ccc(-c4cc(OCC(C)(C)O)cn5ncc(C#N)c45)cn2)C3)cn1
3. CN1CCN(c2ccc(C(=O)Nc3n[nH]c4ccc(Cc5cc(F)cc(F)c5)cc34)c(NC3CCOCC3)c2)CC1
4. C[C@H]1Oc2cc(cnc2N)-c2c(nn(C)c2C#N)CN(C)C(=O)c2ccc(F)cc21
5. C=CC(=O)N1CCC([C@@H]2CCNc3c(C(N)=O)c(-c4ccc(Oc5ccccc5)cc4)nn32)CC1
6. C[C@H](Nc1ncnc2nc[nH]c12)c1cc2cccc(Cl)c2c(=O)n1-c1ccccc1

Outgoing:
[-0.214, -2, 0.952, -2, -4, 0.486]

====

# Study System: panel of 255 wild-type kinases (Homo sapiens, UniProt Q00534)
# Sequence (Q00534 whole entry): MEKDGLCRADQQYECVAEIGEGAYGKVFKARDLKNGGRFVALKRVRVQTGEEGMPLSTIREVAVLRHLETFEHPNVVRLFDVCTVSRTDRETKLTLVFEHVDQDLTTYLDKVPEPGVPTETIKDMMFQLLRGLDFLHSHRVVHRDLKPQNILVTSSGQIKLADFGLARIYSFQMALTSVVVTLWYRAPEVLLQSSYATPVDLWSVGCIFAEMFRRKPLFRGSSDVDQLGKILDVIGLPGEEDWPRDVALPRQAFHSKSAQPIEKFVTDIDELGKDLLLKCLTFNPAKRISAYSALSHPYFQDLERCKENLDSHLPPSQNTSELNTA
# Assay Method Text: Kinase panel profiling at 1 µmol/L (MSA or IMAP), percentage inhibition
# Assay type: biochemical
# Test Settings: CDK6/CycD3 kinase assay; 1 µmol/L single concentration; read-out: %-inhibition CDK6/CycD3
Could you please report measured inhibition at 1 µM for the items listed next?
Answers are plain numbers, in %.

// below: answered molecules
mol=CCc1nc(C(N)=O)c(Nc2ccc(N3CCC(N4CCN(C)CC4)CC3)c(OC)c2)nc1NC1CCOCC1 outcome_measure="inhibition at 1 µM" endpoint_value=4
mol=COc1ccc(CN2C3CC2CN(c2ccc(-c4cc(OCC(C)(C)O)cn5ncc(C#N)c45)cn2)C3)cn1 outcome_measure="inhibition at 1 µM" endpoint_value=0.675
mol=O=C(Nc1cnn2ccc(N3CCC[C@@H]3c3cc(F)ccc3F)nc12)N1CC[C@H](O)C1 outcome_measure="inhibition at 1 µM" endpoint_value=-0.0563
mol=COC(=O)N[C@@H](C)CNc1nccc(-c2cn(C(C)C)nc2-c2cc(Cl)cc(NS(C)(=O)=O)c2F)n1 outcome_measure="inhibition at 1 µM" endpoint_value=6
mol=COc1cc2ncnc(Nc3ccc(F)c(Cl)c3)c2cc1NC(=O)/C=C/CN1CCCCC1 outcome_measure="inhibition at 1 µM" endpoint_value=-6
mol=CCn1c(=O)c(-c2cc(NC(=O)Nc3ccccc3)c(F)cc2Br)cc2cnc(NC)cc21 outcome_measure="inhibition at 1 µM" endpoint_value=-7

From here, focus on the item given below.
Incoming: Query for panel of 255 wild-type kinases (Homo sapiens, UniProt Q00534): what inhibition at 1 µM does the record show for CCN1CCN(c2ccc(Nc3cc(N(C)C(=O)Nc4c(Cl)c(OC)cc(OC)c4Cl)ncn3)cc2)CC1 ?
Outgoing: 17
